Reference source: patent US6703373B1

Assignment: determine reported IC50 for the given compounds.
Tested on: human colon cancer cells (DLD-1)
Assay: Growth inhibition activity on human colon cancer cells (DLD-1)
Assay type: cell-based
Conditions: DLD-1 cells, 72 h with compound, Sulforhodamine B, absorbance 560 nm; read-out: 50% inhibition concentration (IC50, nM) DLD-1
Write down the numeric answer in nM and omit the unit.

input: # query: IC50 of entry O=C1c2c(c3c4ccc(O)cc4n([C@@H]4O[C@H](CO)[C@@H](O)[C@H](O)[C@H]4O)c3c3[nH]c4cc(O)ccc4c23)C(=O)N1NCc1ccc(CO)o1
output: 1

input: Query O=C1c2c(c3c4ccc(O)cc4n([C@@H]4O[C@H](CO)[C@@H](O)[C@H](O)[C@H]4O)c3c3[nH]c4cc(O)ccc4c23)C(=O)N1NCc1ccsc1CO next
output: 4.6

input: Query O=C1c2c(c3c4ccc(O)cc4n([C@@H]4O[C@H](CO)[C@@H](O)[C@H](O)[C@H]4O)c3c3[nH]c4cc(O)ccc4c23)C(=O)N1NCc1csc(CO)c1 next
output: 8.9

input: Query O=C1c2c(c3c4ccc(O)cc4n([C@@H]4O[C@H](CO)[C@@H](O)[C@H](O)[C@H]4O)c3c3[nH]c4cc(O)ccc4c23)C(=O)N1NCc1cccc(CO)n1 next
output: 4.3

input: Query O=C1c2c(c3c4ccc(O)cc4n([C@@H]4O[C@H](CO)[C@@H](O)[C@H](O)[C@H]4O)c3c3[nH]c4cc(O)ccc4c23)C(=O)N1NCc1cscc1CO next
output: 1

input: Query O=C1c2c(c3c4ccc(O)cc4n([C@@H]4O[C@H](CO)[C@@H](O)[C@H](O)[C@H]4O)c3c3[nH]c4cc(O)ccc4c23)C(=O)N1NCc1ccncc1CO next
output: 0.91

input: Query O=C1c2c(c3c4ccc(O)cc4n([C@@H]4O[C@H](CO)[C@@H](O)[C@H](O)[C@H]4O)c3c3[nH]c4cc(O)ccc4c23)C(=O)N1NCc1sc(CO)cc1CO next
output: 4

###

Tested on: human colon cancer cells (DLD-1)
Assay: Growth inhibition activity on human colon cancer cells (DLD-1)
Format: cell-based
Conditions: DLD-1 cells, 72 h with compound, Sulforhodamine B, absorbance 560 nm; read-out: 50% inhibition concentration (IC50, nM) DLD-1
Assignment: determine reported IC50 for the given molecules.
Write down the numeric answer in nM and omit the unit.

input: # query: IC50 of entry O=C1c2c(c3c4cccc(O)c4n(C4OC(CO)C(O)C(O)C4O)c3c3[nH]c4c(O)cccc4c23)C(=O)N1NCc1cccc(O)c1 (stereo not drawn) [Control compound 2, reference compound]
output: 76

input: Query O=C1c2c(c3c4ccc(O)cc4n([C@@H]4O[C@H](CO)[C@@H](O)[C@H](O)[C@H]4O)c3c3[nH]c4cc(O)ccc4c23)C(=O)N1NCc1ccncc1 next
output: 3.3

input: Query O=C1c2c(c3c4ccc(O)cc4n([C@@H]4O[C@H](CO)[C@@H](O)[C@H](O)[C@H]4O)c3c3[nH]c4cc(O)ccc4c23)C(=O)N1NCc1sccc1CO next
output: 1.3
